Where do the numbers come from? From patent US20250074873A1.

target: 5-HT2B receptor (Homo sapiens, UniProt P41595); construct: host or cells: CHO-K1; experiment: FLIPR Ca2+ flux functional assay, 5-HT2B agonist activity; assay type: cell-based; conditions: agonist activity, Ca2+ flux, stably transfected CHO-K1 cells
Sequence (P41595 whole entry): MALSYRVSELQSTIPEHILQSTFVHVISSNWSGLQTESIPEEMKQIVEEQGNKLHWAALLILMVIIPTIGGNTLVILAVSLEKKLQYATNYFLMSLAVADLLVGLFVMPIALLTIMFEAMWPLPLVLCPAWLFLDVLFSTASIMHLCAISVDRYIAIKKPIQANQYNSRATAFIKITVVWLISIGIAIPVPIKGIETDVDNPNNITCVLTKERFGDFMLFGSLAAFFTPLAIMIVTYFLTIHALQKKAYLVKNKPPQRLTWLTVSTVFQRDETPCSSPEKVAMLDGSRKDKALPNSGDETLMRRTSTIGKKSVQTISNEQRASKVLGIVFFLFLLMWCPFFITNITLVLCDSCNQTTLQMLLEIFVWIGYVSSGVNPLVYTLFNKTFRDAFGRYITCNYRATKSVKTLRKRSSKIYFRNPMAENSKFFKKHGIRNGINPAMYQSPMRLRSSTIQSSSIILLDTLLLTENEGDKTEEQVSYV
Binary call on Emax with cut-off 10%: strictly below means Y, and equality or higher means N.

{"columns": ["molecule", "tested.on", "discrete.label"],
 "data": [
  ["CCN(CCc1c[nH]c2cccc(OC)c12)C(C)C [Compound P-25]", "5-HT2B receptor (Homo sapiens, UniProt P41595)", "N"],
  ["CCCN(C)CCc1c[nH]c2ccc(OC(F)(F)F)cc12 [Compound P-34]", "5-HT2B receptor (Homo sapiens, UniProt P41595)", "N"],
  ["CCN(CCc1c[nH]c2cccc(OC)c12)CC(C)C [Compound P-137]", "5-HT2B receptor (Homo sapiens, UniProt P41595)", "N"],
  ["CCCN(CCc1c[nH]c2cccc(O)c12)C(C)C [Compound P-141]", "5-HT2B receptor (Homo sapiens, UniProt P41595)", "N"],
  ["CN(C)CCc1c[nH]c2cccc(OC(F)(F)F)c12 [Compound P-4]", "5-HT2B receptor (Homo sapiens, UniProt P41595)", "Y"],
  ["CCCN(CCc1c[nH]c2cccc(OC)c12)C(C)C [Compound P-26]", "5-HT2B receptor (Homo sapiens, UniProt P41595)", "N"],
  ["CN(C)CCc1c[nH]c2ccc(C(F)(F)F)cc12 [Compound P-15]", "5-HT2B receptor (Homo sapiens, UniProt P41595)", "Y"],
  ["CCC(C)N(C)CCc1c[nH]c2ccc(OC)cc12 (stereo not drawn) [Compound P-16]", "5-HT2B receptor (Homo sapiens, UniProt P41595)", "Y"],
  ["CCN(CCc1c[nH]c2cccc(O)c12)C(C)C [Compound P-138]", "5-HT2B receptor (Homo sapiens, UniProt P41595)", "N"],
  ["COc1ccc2[nH]cc(CCN(C)C3COC3)c2c1 [Compound P-164]", "5-HT2B receptor (Homo sapiens, UniProt P41595)", "Y"],
  ["Cc1cccc2[nH]cc(CCN(C)C(C)C)c12 [Compound P-42]", "5-HT2B receptor (Homo sapiens, UniProt P41595)", "N"],
  ["CCC(C)N(CC)CCc1c[nH]c2ccc(OC)cc12 (stereo not drawn) [Compound P-19]", "5-HT2B receptor (Homo sapiens, UniProt P41595)", "N"],
  ["CCC(C)N(C)CCc1c[nH]c2ccccc12 (stereo not drawn) [Compound P-20]", "5-HT2B receptor (Homo sapiens, UniProt P41595)", "Y"],
  ["COc1ccc2[nH]cc(CCN(C)C3CC3)c2c1 [Compound P-162]", "5-HT2B receptor (Homo sapiens, UniProt P41595)", "N"],
  ["CCCN(CCc1c[nH]c2ccc(OC)cc12)C(C)C [Compound P-17]", "5-HT2B receptor (Homo sapiens, UniProt P41595)", "N"],
  ["CCC(C)N(C)CCc1c[nH]c2cccc(OC)c12 (stereo not drawn) [Compound P-23]", "5-HT2B receptor (Homo sapiens, UniProt P41595)", "Y"],
  ["COc1cccc2[nH]cc(CCN(C)CC(C)C)c12 [Compound P-136]", "5-HT2B receptor (Homo sapiens, UniProt P41595)", "Y"],
  ["CCC(C)N(CC)CCc1c[nH]c2cccc(OC)c12 (stereo not drawn) [Compound P-24]", "5-HT2B receptor (Homo sapiens, UniProt P41595)", "N"],
  ["CCN(CCc1c[nH]c2ccc(OC)cc12)CC(C)C [Compound P-18]", "5-HT2B receptor (Homo sapiens, UniProt P41595)", "N"],
  ["COc1ccc2[nH]cc(CCN(C)C3CCC3)c2c1 [Compound P-163]", "5-HT2B receptor (Homo sapiens, UniProt P41595)", "Y"],
  ["CCC(C)N(CC)CCc1c[nH]c2cccc(O)c12 (stereo not drawn) [Compound P-139]", "5-HT2B receptor (Homo sapiens, UniProt P41595)", "N"]
]}

* * *

Biological target: 5-HT2C receptor (Homo sapiens)
Construct: host or cells: HEK293
Sequence (P28335 33-458): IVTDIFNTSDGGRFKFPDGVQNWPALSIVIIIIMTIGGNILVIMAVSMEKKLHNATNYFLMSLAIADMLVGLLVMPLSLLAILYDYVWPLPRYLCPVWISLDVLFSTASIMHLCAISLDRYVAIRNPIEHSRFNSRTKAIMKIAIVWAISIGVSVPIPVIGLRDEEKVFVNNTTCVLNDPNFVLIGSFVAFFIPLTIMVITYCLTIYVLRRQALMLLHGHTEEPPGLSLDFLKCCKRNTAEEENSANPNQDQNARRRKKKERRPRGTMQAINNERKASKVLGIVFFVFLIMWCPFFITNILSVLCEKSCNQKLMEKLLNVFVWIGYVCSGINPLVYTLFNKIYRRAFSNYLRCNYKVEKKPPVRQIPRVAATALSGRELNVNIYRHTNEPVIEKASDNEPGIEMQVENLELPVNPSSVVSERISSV
Assay: FLIPR Ca2+ flux functional assay, 5-HT2C agonist activity
Type: cell-based
pEC50: −log10 of the molar value.
Values of pEC50 greater than or equal to 7 map to 1; values below map to -1.

{"columns": ["molecular.string", "discrete.label"],
 "data": [
  ["CN(C)CCc1c[nH]c2cccc(OC(F)(F)F)c12", 1],
  ["COc1ccc2[nH]cc(CCN(C)C3CC3)c2c1", 1],
  ["CCN(CCc1c[nH]c2cccc(O)c12)C(C)C", -1],
  ["Cc1cccc2[nH]cc(CCN(C)C(C)C)c12", 1]
]}

* * *

target: 5-HT2A receptor (Homo sapiens, UniProt P28223); construct: host or cells: HEK293; assay: FLIPR Ca2+ flux functional assay, 5-HT2A agonist activity; format: cell-based; settings: agonist activity, Ca2+ flux, stably transfected HEK293 cells
Sequence (P28223 whole entry): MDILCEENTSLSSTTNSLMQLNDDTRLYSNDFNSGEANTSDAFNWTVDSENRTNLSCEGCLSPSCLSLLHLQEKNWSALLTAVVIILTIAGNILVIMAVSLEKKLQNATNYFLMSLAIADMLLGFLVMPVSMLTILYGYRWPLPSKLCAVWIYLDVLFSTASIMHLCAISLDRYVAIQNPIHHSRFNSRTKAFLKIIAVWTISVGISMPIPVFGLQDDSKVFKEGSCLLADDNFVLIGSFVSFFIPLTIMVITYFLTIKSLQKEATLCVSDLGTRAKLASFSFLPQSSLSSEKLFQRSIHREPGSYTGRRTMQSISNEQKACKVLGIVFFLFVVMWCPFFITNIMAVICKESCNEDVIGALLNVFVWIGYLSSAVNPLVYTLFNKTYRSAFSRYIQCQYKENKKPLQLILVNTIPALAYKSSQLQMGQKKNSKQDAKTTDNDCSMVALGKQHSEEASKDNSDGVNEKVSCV
List of Emax values.
outcome.measure: Emax

{"columns": ["compound", "outcome.measure", "value"],
 "data": [
  ["CCCN(C)CCc1c[nH]c2ccc(OC(F)(F)F)cc12 [Compound P-34]", "Emax", "53.7%"],
  ["CN(C)CCc1c[nH]c2cccc(OC(F)(F)F)c12 [Compound P-4]", "Emax", "34.6%"],
  ["CCC(C)N(CC)CCc1c[nH]c2ccccc12 (stereo not shown) [Compound P-21]", "Emax", "71.5%"],
  ["CCN(CCc1c[nH]c2cccc(OC)c12)CC(C)C [Compound P-137]", "Emax", "95.8%"],
  ["CCCN(CCc1c[nH]c2cccc(O)c12)C(C)C [Compound P-141]", "Emax", "105%"],
  ["CCN(CCc1c[nH]c2cccc(OC)c12)C(C)C [Compound P-25]", "Emax", "85.9%"],
  ["CN(C)CCc1c[nH]c2ccc(C(F)(F)F)cc12 [Compound P-15]", "Emax", "28.7%"],
  ["CCN(CCc1c[nH]c2cccc(O)c12)C(C)C [Compound P-138]", "Emax", "105%"],
  ["CCCN(CCc1c[nH]c2cccc(OC)c12)C(C)C [Compound P-26]", "Emax", "81.6%"],
  ["CN(C)CCc1c[nH]c2ccc(OC(F)(F)F)cc12 [Compound P-5]", "Emax", "40.5%"]
]}

* * *

biological target: 5-HT2B receptor (Homo sapiens, UniProt P41595); construct: host or cells: CHO-K1; test: FLIPR Ca2+ flux functional assay, 5-HT2B agonist activity; type: cell-based
pEC50: −log10 of the molar value.
List of pEC50 values.

{"columns": ["molecule", "comparison.symbol", "pEC50"],
 "data": [
  ["CCN(CCc1c[nH]c2cccc(OC)c12)CC(C)C [Compound P-137]", "<", 5.00],
  ["CCN(CCc1c[nH]c2cccc(O)c12)C(C)C [Compound P-138]", "=", 6.49],
  ["CCN(CCc1c[nH]c2ccc(OC)cc12)CC(C)C [Compound P-18]", "=", 6.06]
]}

* * *

Target: 5-HT2B receptor (Homo sapiens)
Construct: host or cells: CHO-K1
Test: FLIPR Ca2+ flux functional assay, 5-HT2B agonist activity
Type: cell-based
Procedure: Functional Assays 5-HT2A, 5-HT2B and 5-HT2C Receptors Activity at 5-HT2A, 5-HT2B and 5-HT2C receptors was determined using a FLIPR Ca2+ flux assay at WuXi AppTec Co. Ltd. (Hong Kong) Discovery Biology Unit according to their standard protocols. […] 10 μL of references and compounds were then transferred from the compound plate into the cell plate and the fluorescent signal was read.
pEC50: −log10 of the molar value.
outcome.measure: pEC50

{"columns": ["compound", "outcome.measure", "value"],
 "data": [
  ["CCCN(CCc1c[nH]c2ccc(OC)cc12)C(C)C", "pEC50", 6.86],
  ["CCC(C)N(C)CCc1c[nH]c2cccc(OC)c12 (stereo not drawn)", "pEC50", "< 5.00"],
  ["CN(C)CCc1c[nH]c2cccc(OC(F)(F)F)c12", "pEC50", "< 5.00"],
  ["CCN(CCc1c[nH]c2cccc(OC)c12)C(C)C", "pEC50", 6.34],
  ["CCC(C)N(C)CCc1c[nH]c2ccc(OC)cc12 (stereo not drawn)", "pEC50", "< 5.00"],
  ["CCC(C)N(CC)CCc1c[nH]c2cccc(O)c12 (stereo not drawn)", "pEC50", "< 5.00"],
  ["COc1ccc2[nH]cc(CCN(C)C3CC3)c2c1", "pEC50", "≤ 5.00"],
  ["CN(C)CCc1c[nH]c2ccc(OC(F)(F)F)cc12", "pEC50", "< 5.00"],
  ["CN(C)CCc1c[nH]c2ccc(C(F)(F)F)cc12", "pEC50", "< 5.00"],
  ["CCCN(CCc1c[nH]c2cccc(OC)c12)C(C)C", "pEC50", 6.99],
  ["CCCN(C)CCc1c[nH]c2ccc(OC(F)(F)F)cc12", "pEC50", "< 5.00"],
  ["CCC(C)N(C)CCc1c[nH]c2ccccc12 (stereo not drawn)", "pEC50", "< 5.00"],
  ["Cc1cccc2[nH]cc(CCN(C)C(C)C)c12", "pEC50", 6.09],
  ["CCN(CCc1c[nH]c2ccccc12)CC(C)C", "pEC50", 5.95],
  ["COc1ccc2[nH]cc(CCN(C)C3CCC3)c2c1", "pEC50", "≤ 5.00"],
  ["CCC(C)N(CC)CCc1c[nH]c2cccc(OC)c12 (stereo not drawn)", "pEC50", 6.35],
  ["CCCN(CCc1c[nH]c2cccc(O)c12)C(C)C", "pEC50", 6.48],
  ["CCC(C)N(CC)CCc1c[nH]c2ccc(OC)cc12 (stereo not drawn)", "pEC50", 5.85],
  ["CCC(C)N(CC)CCc1c[nH]c2ccccc12 (stereo not drawn)", "pEC50", "< 5.00"],
  ["CCN(CCc1c[nH]c2cccc(O)c12)CC(C)C", "pEC50", "< 5.00"],
  ["COc1cccc2[nH]cc(CCN(C)CC(C)C)c12", "pEC50", "< 5.00"]
]}
